Where do these numbers come from? They come from patent US4943579A.

- method.notes: In vitro murine plasma hydrolysis of prodrugs
- Type: in vitro ADME
- experimental.conditions: mouse, initial drug concentration 50 mcg/ml, read-out: t1/2 of hydrolysis in murine plasma
Reported half-life values follow for various molecules
readout: half-life (min)

INSERT INTO results (molecule, readout_units, value_reported) VALUES
  ('CC[C@@]1(OC(=O)CNC)C(=O)OCc2c1cc1n(c2=O)Cc2cc3ccccc3nc2-1', 'min', 28),
  ('CCNCC(=O)O[C@]1(CC)C(=O)OCc2c1cc1n(c2=O)Cc2cc3ccccc3nc2-1', 'min', 40),
  ('CC[C@@]1(OC(=O)C(N)CCC(=O)O)C(=O)OCc2c1cc1n(c2=O)Cc2cc3ccccc3nc2-1 (stereo partly drawn)', 'min', 35);

* * *

Reported solubility values follow for various molecules
- method.notes: Aqueous solubility
- Assay type: physicochemical
- experimental.conditions: water, read-out: Aqueous solubility
Where a name gives a salt, the structure may show the parent alone.
readout: solubility (µg/mL)

INSERT INTO results (molecule, readout_units, value_reported) VALUES
  ('CC[C@@]1(OP(=O)(O)O)C(=O)OCc2c1cc1n(c2=O)Cc2cc3ccccc3nc2-1 [Formula 15, Camptothecin-20-phosphate sodium salt]', 'µg/mL', 8000),
  ('CC[C@@]1(OC(=O)CN)C(=O)OCc2c1cc1n(c2=O)Cc2cc3ccccc3nc2-1 [Formula 7, Camptothecin-20-O-glycinate.HCl]', 'µg/mL', 6000),
  ('CCNCC(=O)O[C@]1(CC)C(=O)OCc2c1cc1n(c2=O)Cc2cc3ccccc3nc2-1', 'µg/mL', 8000),
  ('CCN(CC)CC(=O)O[C@]1(CC)C(=O)OCc2c1cc1n(c2=O)Cc2cc3ccccc3nc2-1', 'µg/mL', 5000);

* * *

- method.notes: In vitro human plasma hydrolysis of prodrugs
- Assay type: in vitro ADME
- experimental.conditions: initial drug concentration 50 mcg/ml, read-out: t1/2 of hydrolysis in human plasma
Where a name gives a salt, the structure may show the parent alone.
readout: half-life (min)

INSERT INTO results (compound, value_reported) VALUES
  ('CC[C@@]1(OP(=O)(O)O)C(=O)OCc2c1cc1n(c2=O)Cc2cc3ccccc3nc2-1 [Formula 15, Camptothecin-20-phosphate sodium salt]', 20),
  ('CC[C@@]1(OC(=O)CN)C(=O)OCc2c1cc1n(c2=O)Cc2cc3ccccc3nc2-1 [Formula 7, Camptothecin-20-O-glycinate.HCl]', 15),
  ('CC[C@@]1(OC(=O)CNC)C(=O)OCc2c1cc1n(c2=O)Cc2cc3ccccc3nc2-1', 13),
  ('CCNCC(=O)O[C@]1(CC)C(=O)OCc2c1cc1n(c2=O)Cc2cc3ccccc3nc2-1', 18),
  ('CC[C@@]1(OC(=O)C(N)CCCCCN)C(=O)OCc2c1cc1n(c2=O)Cc2cc3ccccc3nc2-1 (some centres unmarked)', 20),
  ('CCN(CC)CC(=O)O[C@]1(CC)C(=O)OCc2c1cc1n(c2=O)Cc2cc3ccccc3nc2-1', 45),
  ('CC[C@@]1(OC(=O)C(N)CCC(=O)O)C(=O)OCc2c1cc1n(c2=O)Cc2cc3ccccc3nc2-1 (some centres unmarked)', 18),
  ('CC[C@@]1(OC(=O)CCC(=O)O)C(=O)OCc2c1cc1n(c2=O)Cc2cc3ccccc3nc2-1 [Formula 14, sodium salt]', 16);
